src = patent CN116323625A

Measurement Target: KRAS G12D:RAF1 protein interaction [KRAS G12D:RAF1蛋白相互作用] (Homo sapiens, UniProt P01116, G12D)
Sequence (P01116 1-188 isoform P01116-2 G12D): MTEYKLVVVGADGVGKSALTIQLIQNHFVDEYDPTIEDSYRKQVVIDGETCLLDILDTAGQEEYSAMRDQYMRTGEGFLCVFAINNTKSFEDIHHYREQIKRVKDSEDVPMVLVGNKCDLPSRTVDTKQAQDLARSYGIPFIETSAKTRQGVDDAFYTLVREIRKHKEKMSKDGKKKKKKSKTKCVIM
Protocol Text: Inhibition of the KRAS G12D:RAF1 protein interaction (TR-FRET binding assay)
Study Conditions: in vitro, 10000nM-0.1nM, 4 h at room temperature
Measured Property: IC50 (nM)
Reply numerically in nM, unit not repeated.

In [3]: df
Out[3]:
                         structure_notation  measured_property  readout_value
0  O=C([C@H]1CCCN1)N1C2CCC1CN(c1nc(OC[C@@]34CCCN3C[C@H](F)C4)nc3c(F)c(-c4cc(O)cc5cccc(F)c45)ncc13)C2               IC50            114

Now look at this one.
Ask: Any idea what IC50 was measured for OCCN1C2CCC1CN(c1nc(OC[C@@]34CCCN3C[C@H](F)C4)nc3c(F)c(-c4cc(O)cc5cccc(F)c45)ncc13)C2 ?
Result: 189
